meta.source: EPA's aquatic toxicity sets

We begin with a simple list: items and their reported 48 h IGC50 (-log10 mol/L).
- Test system: Tetrahymena pyriformis
- assay: 48 h IGC50 (-log10 mol/L); higher = more toxic
metric-name: 48 h IGC50 (-log10 mol/L)

molecule: CCCCCCCCCCOC(C)=O
number: 4.88
--
molecule: CCCCC(Br)C(=O)O (stereo unspecified)
number: 3.46
--
molecule: CC(O)CO (stereo unspecified)
number: 0.49
--
molecule: O=[N+]([O-])c1ccccc1CO
number: 2.85
--
molecule: C/C=C/C(C)=O
number: 3.54
--
molecule: Clc1ccccc1
number: 2.87
--
molecule: OCCCCCCc1ccccc1
number: 3.87
--
molecule: O=C(O)c1c(Cl)cccc1Cl
number: 2.33
--
molecule: CCC(=O)OC
number: 1.39
--
molecule: CC(C)c1ccc(Br)cc1
number: 3.85
--
molecule: CCOC(=O)C(C#N)c1ccccc1 (stereo unspecified)
number: 2.98
--
molecule: Cc1cccc(O)c1[N+](=O)[O-]
number: 3.61
--
molecule: COc1cccc(C=O)c1
number: 3.23
--
molecule: O=Cc1ccc(O)c(O)c1
number: 3.11
--
molecule: Cc1cc(Cl)nc(N)n1
number: 2.53
--
molecule: N#Cc1ccc(-c2ccccc2)cc1
number: 4.24
